Record form. Attribute: EC50. Fill in for each entry.
- target-or-system: 5HT2B receptors (Homo sapiens)
- Construct: expressed in transfected cells; host or cells: CHO-K1 cells
- Sequence (P41595 whole entry): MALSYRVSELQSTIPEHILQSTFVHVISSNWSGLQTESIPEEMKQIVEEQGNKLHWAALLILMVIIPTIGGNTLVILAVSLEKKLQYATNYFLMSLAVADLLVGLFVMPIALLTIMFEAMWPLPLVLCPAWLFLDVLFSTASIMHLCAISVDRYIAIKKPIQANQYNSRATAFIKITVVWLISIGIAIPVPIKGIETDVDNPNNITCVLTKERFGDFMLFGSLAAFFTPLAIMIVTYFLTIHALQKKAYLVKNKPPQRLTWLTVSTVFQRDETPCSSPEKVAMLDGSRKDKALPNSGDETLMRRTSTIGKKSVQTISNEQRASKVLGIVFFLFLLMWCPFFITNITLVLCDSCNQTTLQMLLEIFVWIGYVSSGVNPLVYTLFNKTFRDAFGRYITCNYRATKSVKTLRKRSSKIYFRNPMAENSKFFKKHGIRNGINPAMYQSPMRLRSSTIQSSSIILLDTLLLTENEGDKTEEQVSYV
- protocol-summary: Human 5-HT2B functional high throughput screening assay in CHO-K1 cells (calcium flux)
- Assay type: cell-based
- run-conditions: 5-HT2B agonist activity; CHO-K1 cells; calcium flux; read-out: EC50

Recorded EC50 of O=S(=O)(c1cccc(OC(F)(F)F)c1)N1Cc2cccnc2[C@@H]2CNC[C@H]2C1 (relative stereo) , please.
0.2 µM

Also c1ccc(CN2C[C@H]3CCNc4ccccc4[C@@H]3C2)cc1 (relative stereo) ?
0.8 µM

Also COc1cccc2c1OCC[C@H]1CNC[C@H]21 (relative stereo) ?
0.2 µM

Also CN1C[C@H]2CNC(=O)c3cc(C(=O)NCCc4ccccc4)ccc3[C@@H]2C1 (relative stereo) ?
> 10 µM

Also O=C1NC[C@@H]2CN(Cc3ccccc3)C[C@H]2c2cccc(F)c21 (relative stereo) ?
> 10 µM

Also C[C@H](O)c1cc(-c2ccc3c(c2)C(=O)NC[C@H]2CN(C)C[C@H]32)ccc1F (single isomer, unassigned) ?
> 10 µM

Also CN1C[C@H]2CNC(=O)c3cc(-c4cccc(C=O)c4)ccc3[C@@H]2C1 (relative stereo) ?
> 10 µM

Also CN1C[C@H]2CNC(=O)c3cc(C(=O)Nc4ccccc4)ccc3[C@@H]2C1 (relative stereo) ?
> 10 µM

Also O=C1NC[C@@H]2CNC[C@H]2c2ccc(-c3ccsc3)cc21 (relative stereo) ?
> 10 µM
